B1: scFv; the commonest letter at each place (parent)
chain 1: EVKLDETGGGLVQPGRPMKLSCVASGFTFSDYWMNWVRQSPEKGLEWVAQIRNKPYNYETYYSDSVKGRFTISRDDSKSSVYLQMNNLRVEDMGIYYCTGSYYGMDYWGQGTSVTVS
chain 2: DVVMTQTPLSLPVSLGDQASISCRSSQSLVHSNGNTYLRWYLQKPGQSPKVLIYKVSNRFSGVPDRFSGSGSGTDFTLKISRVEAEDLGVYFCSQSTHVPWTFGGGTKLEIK

- Variants of: B1
- procedureSummary: Kd (Tite-Seq)
- assaySetup: with fluorescein; format: scFv 4-4-20, heavy + light
Kindly supply the reported Kd values for the records listed here.

Example variants with recorded Kd:
chain 1 S101A G104N | ≥ 10 µM
chain 1 G100V Y107H | ≥ 10 µM
chain 1 D31P N35F | 0.0302 µM

# return Kd for each item in the list
1. chain 1 F29K W33R
2. chain 1 N35Q
3. chain 1 S30D V37P

## Output
0.0692 µM
≥ 10 µM
≥ 10 µM

Dear reader, for each entry below, please note its Kd.
1. chain 1 M105C
2. chain 1 S101N Y103C
3. chain 1 T28A Y32T

## Output
1. 4.48 µM
2. ≥ 10 µM
3. ≥ 10 µM

Could you tell me Kd for each of these variants? They are listed below.
1. chain 1 G100T Y103E
2. chain 1 F29R S30L
3. chain 1 S30M N35M
4. chain 1 W33Y M34I
5. chain 1 Y103F W108I
6. chain 1 T28I Y32C

## Output
≥ 10 µM
≥ 10 µM
≥ 10 µM
≥ 10 µM
≤ 0.000316 µM
2.23 µM
